system: metallo-beta-lactamase IMP-1 (Pseudomonas aeruginosa); assay: IMP-1 metallo-beta-lactamase inhibitors, primary screen, biochemical, epi-absorbance readout, Pseudomonas aeruginosa enzyme (AID 1556); conditions: purified IMP-1, nitrocefin hydrolysis, epi-absorbance fluorescence; at 5.6 µM;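 further: 0% = IMP-1 with DMSO and 100% = DMSO wells lacking enzyme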
The campaign covered roughly 290,000 compounds. About 1,300 (0.45%) were called active.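 How the source made its calls: active means inhibition above the mean plus 3 SD of all compounds in the same screening run (cut at about 4.5% in these data); inactive means the rest.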 The sample holds actives, similar compounds and a random draw of the others, so the mix is not that of the screen.
// one of class 1 (active), class 0 (inactive), no free text

Please review the entries below; each comes with its answer.
molecule	experimental.system	class.assignment
Cc1c(CCC(=O)O)c(=O)oc2c(C)c(OCc3ccccc3Cl)ccc12	metallo-beta-lactamase IMP-1 (Pseudomonas aeruginosa)	class 1
Cc1ccnc(NC(=O)c2ccco2)n1	metallo-beta-lactamase IMP-1 (Pseudomonas aeruginosa)	class 1
Cc1c(CCC(=O)O)c(=O)oc2cc(OCc3ccc(Br)cc3)ccc12	metallo-beta-lactamase IMP-1 (Pseudomonas aeruginosa)	class 0
COc1ccc2cc(S(=O)(=O)Nc3ccccn3)ccc2c1	metallo-beta-lactamase IMP-1 (Pseudomonas aeruginosa)	class 0
CCOC(=O)c1cc2cc3ccccc3cc2oc1=O	metallo-beta-lactamase IMP-1 (Pseudomonas aeruginosa)	class 0

Alright, here's another molecule for you.
What outcome does the record of this test show for `CCOc1ccc(N/C=C/C(=O)c2ccccc2)cc1` ?
class 0
